tested on: Mtb strain mc^27000; assay: microbe, parasite or virus in culture; assay type: cell-based, Mycobacterium tuberculosis; details: Mycobacterium tuberculosis, Mtb mc^27000, liquid medium, 96-well plates; read-out: MIC
MIC reference

Sample answers from the record:
1) CNC(=O)c1c(-c2cccnc2)oc2ccc(OC)c(CN3CCCCC3)c12 > 40 µM
2) CC(C)N1Cc2cc(O)cc3oc(-c4ccccc4)c(c23)C1=O > 20 µM

QUERY: // query MIC value for entry CNC(=O)c1c(-c2ccccc2)oc2cc(O)cc(CS(=O)(=O)NC)c12
RESULT: > 20 µM

----------
molecular target: Mtb Pks13-TE domain (wild-type) (Mycobacterium tuberculosis); experiment: biochemical; assay type: biochemical; conditions: Pks13-TE, 20 μM 4-MUH; read-out: IC50
Sequence (I6X8D2 1451-1733): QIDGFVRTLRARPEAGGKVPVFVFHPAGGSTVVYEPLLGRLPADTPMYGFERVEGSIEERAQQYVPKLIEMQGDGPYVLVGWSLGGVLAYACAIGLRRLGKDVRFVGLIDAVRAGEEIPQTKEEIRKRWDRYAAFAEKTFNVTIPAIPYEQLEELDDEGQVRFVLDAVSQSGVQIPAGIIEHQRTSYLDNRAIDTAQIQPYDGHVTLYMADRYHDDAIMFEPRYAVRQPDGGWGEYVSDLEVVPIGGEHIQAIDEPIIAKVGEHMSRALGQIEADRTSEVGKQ
pIC50: −log10 of the molar value.
measurementName: pIC50

compound	pIC50
CCOC(=O)c1c(-c2ccccc2)oc2ccc(O)c(CCN3CCCC3C(=O)O)c12 (stereo not drawn)	< 4.40

QUERY: Returns the measured pIC50 for the input compound. Input: CNC(=O)c1c(-c2ccccc2)oc2cc(O)cc(CN3CCC(O)CC3)c12
RESULT: < 4.70

QUERY: Endpoint output: pIC50 of CNC(=O)c1c(-c2ccccc2)oc2ccc(O)c(CCNc3ccccc3)c12 . Value?
RESULT: < 4.40

QUERY: Can you share its pIC50? I mean this compound: CCOC(=O)c1c(-c2ccccc2)oc2ccc(O)c(CCCN3CCCC(CO)C3)c12 (stereo not drawn)
RESULT: < 4.40

QUERY: // query pIC50 value for entry CNC(=O)c1c(-c2ccccc2)oc2ccc(O)c(CCN3CCCCC3C(F)(F)F)c12 (stereo not drawn)
RESULT: < 4.70

QUERY: Looking for the measured pIC50 of CCOC(=O)c1c(-c2ccccc2)oc2ccc(O)c(CCN3[C@H](C)CCC[C@@H]3C)c12 , can you help?
RESULT: < 4.40
